- procedure_details: Plasma concentrations (PK), Example 1
- Type: in vivo, human
- condition_notes: human, plasma, oral, 25 mg, 25 mg QD; Week 8; Trough; read-out: Plasma concentration, Geometric Mean
measurement_label: level at 1344 h (ng/mL)
# unit: ng/mL | format: bare number

Request: Please look at this molecule and report its level at 1344 h: CC(=O)NCCCC[C@@H]1NC(=O)[C@H](Cc2c[nH]c3c(C)cccc23)NC(=O)[C@H]([C@@H](C)O)NC(=O)[C@H](CC(N)=O)NC(=O)[C@@H](NC(C)=O)C(C)(C)SSC(C)(C)[C@@H](C(=O)N[C@@H](Cc2ccc(OCCN)cc2)C(=O)N[C@@H](Cc2ccc3ccccc3c2)C(=O)NC2(C(=O)N[C@@H](CCC(=O)O)C(=O)N[C@@H](CC(N)=O)C(=O)N[C@@H](Cc3cccnc3)C(=O)N(C)CC(N)=O)CCOCC2)NC1=O [IL-23 receptor antagonist peptide]
Result: 0.061
